- Test system: mAb3C9
- Procedure text: mimotope-based dcELISA (mAb3C9 and M20-GST-BAD/SA-HRP competitor)
- Type: binding, mouse
- Experimental conditions: M20-GST-BAD; (IC50 of parathion-methyl/IC50 of pesticide) × 100
Metric: CR (%)
Answers are plain numbers, in %.

Answered cases to consult:
{"Compound": "COP(=O)(OC)OC=C(Cl)Cl", "CR (%)": 3.5}
{"Compound": "CNC(=O)CSP(=S)(OC)OC [Dimethoate]", "CR (%)": 2.7}

I would be grateful if you could provide CR (%) for each of the following entries.
1. COP(=S)(OC)Oc1ccc([N+](=O)[O-])cc1
2. COP(=S)(OC)Oc1c(Cl)cc(C)cc1Cl
3. CNC(=O)/C=C(\C)OP(=O)(OC)OC
4. CCOP(=S)(OCC)Oc1ccc([N+](=O)[O-])cc1
5. COP(=S)(OC)Oc1ccc(S(=O)(=O)N(C)C)cc1

1. 100.0
2. 61.3
3. 2.5
4. 0.2
5. 339.6

Source: paper PMC5118688
